Value source: ChEMBL document CHEMBL1629443

# Test system: SK-OV-3
# assay overview: Cytotoxicity against human SKOV3 cells overexpressing HER2 by resazurin dye reduction assay
# Format: functional, cell-based

{"compound structure string": "O=C(NO)c1ccc(-c2ccc3ncnc(Nc4ccc(OCc5cccc(F)c5)c(Cl)c4)c3c2)o1", "tested target": "SK-OV-3", "IC50, µM": 15}
{"compound structure string": "O=C(/C=C/c1ccc(-c2ccc3ncnc(Nc4ccc(OCc5cccc(F)c5)c(Cl)c4)c3c2)cc1)NO", "tested target": "SK-OV-3", "IC50, µM": 1.2}
{"compound structure string": "CS(=O)(=O)CCNCc1ccc(-c2ccc3ncnc(Nc4ccc(OCc5cccc(F)c5)c(Cl)c4)c3c2)o1", "tested target": "SK-OV-3", "IC50, µM": 0.003}
{"compound structure string": "Nc1ccccc1NC(=O)/C=C/c1cccc(-c2ccc3ncnc(Nc4ccc(OCc5cccc(F)c5)c(Cl)c4)c3c2)c1", "tested target": "SK-OV-3", "IC50, µM": 36}
